Reported pIC50 values for a set of compounds
target: Receptor-type tyrosine-protein kinase FLT3 (Homo sapiens); assay: Inhibition of FLT3 (unknown origin) by LC-MS analysis
Sequence (P36888 whole entry): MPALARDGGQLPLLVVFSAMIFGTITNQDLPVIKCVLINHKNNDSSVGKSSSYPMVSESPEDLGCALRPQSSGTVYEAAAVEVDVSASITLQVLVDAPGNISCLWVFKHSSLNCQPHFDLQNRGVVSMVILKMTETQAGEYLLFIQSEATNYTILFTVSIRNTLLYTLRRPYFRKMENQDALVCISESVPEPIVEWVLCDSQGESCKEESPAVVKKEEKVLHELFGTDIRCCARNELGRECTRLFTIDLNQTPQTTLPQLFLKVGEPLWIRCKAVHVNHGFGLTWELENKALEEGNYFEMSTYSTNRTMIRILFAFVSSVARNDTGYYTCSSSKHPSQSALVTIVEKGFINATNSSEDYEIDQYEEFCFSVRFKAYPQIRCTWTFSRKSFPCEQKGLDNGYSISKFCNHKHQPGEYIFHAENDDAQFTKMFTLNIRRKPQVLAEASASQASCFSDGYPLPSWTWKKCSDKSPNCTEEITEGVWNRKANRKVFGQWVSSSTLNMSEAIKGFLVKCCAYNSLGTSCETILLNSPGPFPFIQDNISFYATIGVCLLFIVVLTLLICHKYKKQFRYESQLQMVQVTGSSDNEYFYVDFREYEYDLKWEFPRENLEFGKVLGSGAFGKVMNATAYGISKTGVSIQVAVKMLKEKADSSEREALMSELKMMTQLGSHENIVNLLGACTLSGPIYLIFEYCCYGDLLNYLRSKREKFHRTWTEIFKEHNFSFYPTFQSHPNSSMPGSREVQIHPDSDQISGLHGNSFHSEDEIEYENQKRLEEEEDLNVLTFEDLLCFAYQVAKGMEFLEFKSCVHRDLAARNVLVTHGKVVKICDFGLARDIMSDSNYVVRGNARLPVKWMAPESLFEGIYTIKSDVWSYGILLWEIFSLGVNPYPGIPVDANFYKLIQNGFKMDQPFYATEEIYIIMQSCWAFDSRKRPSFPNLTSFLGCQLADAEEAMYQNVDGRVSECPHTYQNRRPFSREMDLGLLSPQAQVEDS
Lab note: report pIC50 as minus log10 of the concentration in molar units, number only.

Before answering, review these 5 worked examples.
| structure-smiles-string | metric-name | measured-value |
| --- | --- | --- |
| CN(Cc1ccc2nccn2c1)c1nnc(-c2ccc(C3CC3)cc2)o1 | pIC50 | 4.60 |
| COc1cc(-c2c(C)nn(C)c2C)ccc1-c1nnc(N(C)Cc2ccc3nccn3c2)o1 | pIC50 | 4.40 |
| CN(Cc1ccc2nccn2c1)c1nnc(-c2ccc(-c3ccccc3)cc2)o1 | pIC50 | 4.60 |
| COc1ccccc1-c1ccc(-c2nnc(N(C)Cc3ccc4nccn4c3)o2)cc1 | pIC50 | 4.30 |
| Cc1cc(-c2c(C#N)nn(C)c2C)ccc1-c1nnc(N(C)Cc2ccc3nccn3c2)o1 | pIC50 | 4.60 |

So what does the record say about pIC50 for Cc1cc(-c2c(C)nn(C)c2C)ccc1-c1nnc(N(C)Cc2ccc3nccn3c2)o1 ?
4.80

So what does the record say about pIC50 for Cc1cc(-c2c(C)nn(C(F)F)c2C)ccc1-c1nnc(N(C)Cc2ccc3nccn3c2)o1 ?
4.00
